Test system: MDA-MB-435
assay-summary: NCI-60 anticancer screening (SRB)
Type: cell-based
details: Homo sapiens; MDA-MB-435, melanoma; one dose 10 μM; read-out: Growth Inhibition Percentage (GI %)
readout: inhibition at 10 µM

>>> endpoint_value("CCOC(=O)C1=C(N)N(c2ccc(Cl)cc2)C2=C(C(=O)CC(C)(C)C2)C1c1ccc(Cl)cc1 (racemic)")
"54%"
>>> endpoint_value("CCOC(=O)C1=C(N)N(c2ccc(Cl)cc2)C2=C(C(=O)CC(C)(C)C2)C1c1ccccc1Br (racemic)")
"< 10%"
>>> endpoint_value("CCOC(=O)C1=C(N)N(c2ccc(Cl)cc2)C2=C(C(=O)CC(C)(C)C2)C1c1ccc(N2CCOCC2)cc1 (racemic)")
"< 10%"
>>> endpoint_value("CCOC(=O)C1=C(N)N(c2ccccc2)C2=C(C(=O)CC(C)(C)C2)C1c1cccnc1 (racemic) [12d]")
"< 10%"
>>> endpoint_value("CCOC(=O)C1=C(N)N(c2ccc(C)cc2)C2=C(C(=O)CC(C)(C)C2)C1c1ccc([N+](=O)[O-])cc1 (racemic)")
"< 10%"
>>> endpoint_value("CCOC(=O)C1=C(N)N(c2ccccc2)C2=C(C(=O)CC(C)(C)C2)C1c1ccc(Cl)cc1Cl (racemic) [10c]")
"71%"
>>> endpoint_value("CCOC(=O)C1=C(N)N(c2ccc(Cl)cc2)C2=C(C(=O)CC(C)(C)C2)C1c1cccnc1 (racemic) [12f]")
"< 10%"
>>> endpoint_value("CCOC(=O)C1=C(N)N(c2ccccc2)C2=C(C(=O)CC(C)(C)C2)C1c1ccc([N+](=O)[O-])cc1 (racemic)")
"< 10%"
>>> endpoint_value("CCOC(=O)C1=C(N)N(c2ccc(Cl)cc2)C2=C(C(=O)CC(C)(C)C2)C1c1ccccn1 (racemic) [12c]")
"< 10%"
>>> endpoint_value("CCOC(=O)C1=C(N)N(c2ccc(C)cc2)C2=C(C(=O)CC(C)(C)C2)C1c1ccc(Cl)cc1 (racemic)")
"< 10%"

---

Each entry below lists one item and its recorded inhibition at 10 µM value.
Tested on: LOX IMVI
assay-summary: NCI-60 anticancer screening (SRB)
Type: cell-based
details: Homo sapiens, melanoma, one dose 10 μM, read-out: Growth Inhibition Percentage (GI %)
readout: inhibition at 10 µM (%)

>>> endpoint_value("CCOC(=O)C1=C(N)N(c2ccccc2)C2=C(C(=O)CC(C)(C)C2)C1c1ccc([N+](=O)[O-])cc1 (racemic)")
11
>>> endpoint_value("CCOC(=O)C1=C(N)N(c2ccccc2)C2=C(C(=O)CC(C)(C)C2)C1c1ccc(Cl)cc1 (racemic)")
59
>>> endpoint_value("CCOC(=O)C1=C(N)N(c2ccc(Cl)cc2)C2=C(C(=O)CC(C)(C)C2)C1c1ccc([N+](=O)[O-])cc1 (racemic)")
21
>>> endpoint_value("CCOC(=O)C1=C(N)N(c2ccccc2)C2=C(C(=O)CC(C)(C)C2)C1c1ccccc1Cl (racemic)")
15
>>> endpoint_value("CCOC(=O)C1=C(N)N(c2ccccc2)C2=C(C(=O)CC(C)(C)C2)C1c1ccccc1Br (racemic)")
12

---

Tested on: BT-549
assay-summary: NCI-60 anticancer screening (SRB)
Format: cell-based
details: Homo sapiens; BT-549, breast cancer; one dose 10 μM; read-out: Growth Inhibition Percentage (GI %)
readout: inhibition at 10 µM

>>> endpoint_value("CCOC(=O)C1=C(N)N(c2ccc(Cl)cc2)C2=C(C(=O)CC(C)(C)C2)C1c1cccnc1 (racemic) [12f]")
"< 10%"
>>> endpoint_value("CCOC(=O)C1=C(N)N(c2ccccc2)C2=C(C(=O)CC(C)(C)C2)C1c1ccc(OC)cc1 (racemic)")
"< 10%"
>>> endpoint_value("CCOC(=O)C1=C(N)N(c2ccc(C)cc2)C2=C(C(=O)CC(C)(C)C2)C1c1ccccc1Br (racemic)")
"< 10%"
>>> endpoint_value("CCOC(=O)C1=C(N)N(c2ccc(Cl)cc2)C2=C(C(=O)CC(C)(C)C2)C1c1ccc([N+](=O)[O-])cc1 (racemic)")
"< 10%"
>>> endpoint_value("CCOC(=O)C1=C(N)N(c2ccccc2)C2=C(C(=O)CC(C)(C)C2)C1c1cccnc1 (racemic) [12d]")
"< 10%"
>>> endpoint_value("CCOC(=O)C1=C(N)N(c2ccc(C)cc2)C2=C(C(=O)CC(C)(C)C2)C1c1ccc(Cl)cc1 (racemic)")
"< 10%"
>>> endpoint_value("CCOC(=O)C1=C(N)N(c2ccccc2)C2=C(C(=O)CC(C)(C)C2)C1c1ccc(F)cc1 (racemic)")
"< 10%"
>>> endpoint_value("CCOC(=O)C1=C(N)N(c2ccccc2)C2=C(C(=O)CC(C)(C)C2)C1c1ccccn1 (racemic) [12a]")
"< 10%"
>>> endpoint_value("CCOC(=O)C1=C(N)N(c2ccc(Cl)cc2)C2=C(C(=O)CC(C)(C)C2)C1c1ccccn1 (racemic) [12c]")
"< 10%"

---

System: HT29
assay-summary: NCI-60 anticancer screening (SRB)
Assay type: cell-based
details: Homo sapiens, HT-29; HT29, colon cancer; one dose 10 μM; read-out: Growth Inhibition Percentage (GI %)
Each entry gets Condition not met if its inhibition at 10 µM stays under 40%, and Condition met if its inhibition at 10 µM is 40% or above.

>>> assigned_label("CCOC(=O)C1=C(N)N(c2ccc(Cl)cc2)C2=C(C(=O)CC(C)(C)C2)C1c1ccccc1Br (racemic)")
"Condition met"
>>> assigned_label("CCOC(=O)C1=C(N)N(c2ccccc2)C2=C(C(=O)CC(C)(C)C2)C1c1ccccc1OC (racemic)")
"Condition not met"
>>> assigned_label("CCOC(=O)C1=C(N)N(c2ccccc2)C2=C(C(=O)CC(C)(C)C2)C1c1ccc(N2CCOCC2)cc1 (racemic)")
"Condition not met"
>>> assigned_label("CCOC(=O)C1=C(N)N(c2ccccc2)C2=C(C(=O)CC(C)(C)C2)C1c1ccc(Cl)cc1 (racemic)")
"Condition met"
>>> assigned_label("CCOC(=O)C1=C(N)N(c2ccc(C)cc2)C2=C(C(=O)CC(C)(C)C2)C1c1cccnc1 (racemic) [12e]")
"Condition not met"
>>> assigned_label("CCOC(=O)C1=C(N)N(c2ccc(Cl)cc2)C2=C(C(=O)CC(C)(C)C2)C1c1cccc(Cl)c1Cl (racemic) [10b]")
"Condition not met"
>>> assigned_label("CCOC(=O)C1=C(N)N(c2ccccc2)C2=C(C(=O)CC(C)(C)C2)C1c1ccccn1 (racemic) [12a]")
"Condition not met"
>>> assigned_label("CCOC(=O)C1=C(N)N(c2ccc(Cl)cc2)C2=C(C(=O)CC(C)(C)C2)C1c1ccc(N2CCOCC2)cc1 (racemic)")
"Condition not met"
>>> assigned_label("CCOC(=O)C1=C(N)N(c2ccc(C)cc2)C2=C(C(=O)CC(C)(C)C2)C1c1ccccc1Br (racemic)")
"Condition not met"
>>> assigned_label("CCOC(=O)C1=C(N)N(c2ccccc2)C2=C(C(=O)CC(C)(C)C2)C1c1cccnc1 (racemic) [12d]")
"Condition not met"
>>> assigned_label("CCOC(=O)C1=C(N)N(c2ccc(C)cc2)C2=C(C(=O)CC(C)(C)C2)C1c1ccccc1Cl (racemic)")
"Condition not met"
>>> assigned_label("CCOC(=O)C1=C(N)N(c2ccc(Cl)cc2)C2=C(C(=O)CC(C)(C)C2)C1c1ccccc1Cl (racemic)")
"Condition met"
>>> assigned_label("CCOC(=O)C1=C(N)N(c2ccccc2)C2=C(C(=O)CC(C)(C)C2)C1c1ccc(F)cc1 (racemic)")
"Condition not met"

---

Tested on: U251
assay-summary: NCI-60 anticancer screening (SRB)
Assay type: cell-based
details: Homo sapiens, U-251; U251, CNS cancer; one dose 10 μM; read-out: Growth Inhibition Percentage (GI %)
readout: inhibition at 10 µM

>>> endpoint_value("CCOC(=O)C1=C(N)N(c2ccc(C)cc2)C2=C(C(=O)CC(C)(C)C2)C1c1ccccc1Cl (racemic) [6b]")
"< 10%"
>>> endpoint_value("CCOC(=O)C1=C(N)N(c2ccc(Cl)cc2)C2=C(C(=O)CC(C)(C)C2)C1c1cccc(Cl)c1Cl (racemic) [10b]")
"22%"
>>> endpoint_value("CCOC(=O)C1=C(N)N(c2ccccc2)C2=C(C(=O)CC(C)(C)C2)C1c1ccc([N+](=O)[O-])cc1 (racemic) [8i]")
"< 10%"
>>> endpoint_value("CCOC(=O)C1=C(N)N(c2ccc(Cl)cc2)C2=C(C(=O)CC(C)(C)C2)C1c1ccc(N2CCOCC2)cc1 (racemic) [8m]")
"12%"

---

Tested on: SNB-19
assay-summary: NCI-60 anticancer screening (SRB)
Format: cell-based
details: Homo sapiens; SNB-19, CNS cancer; one dose 10 μM; read-out: Growth Inhibition Percentage (GI %)
Each entry below lists one item and its recorded inhibition at 10 µM value.
readout: inhibition at 10 µM

>>> endpoint_value("CCOC(=O)C1=C(N)N(c2ccccc2)C2=C(C(=O)CC(C)(C)C2)C1c1ccccn1 (racemic) [12a]")
"< 10%"
>>> endpoint_value("CCOC(=O)C1=C(N)N(c2ccc(Cl)cc2)C2=C(C(=O)CC(C)(C)C2)C1c1ccccn1 (racemic) [12c]")
"< 10%"
>>> endpoint_value("CCOC(=O)C1=C(N)N(c2ccccc2)C2=C(C(=O)CC(C)(C)C2)C1c1cccnc1 (racemic) [12d]")
"< 10%"
>>> endpoint_value("CCOC(=O)C1=C(N)N(c2ccc(C)cc2)C2=C(C(=O)CC(C)(C)C2)C1c1ccccc1OC (racemic)")
"< 10%"
>>> endpoint_value("CCOC(=O)C1=C(N)N(c2ccc(Cl)cc2)C2=C(C(=O)CC(C)(C)C2)C1c1ccc(N2CCOCC2)cc1 (racemic)")
"< 10%"
>>> endpoint_value("CCOC(=O)C1=C(N)N(c2ccccc2)C2=C(C(=O)CC(C)(C)C2)C1c1ccccc1Cl (racemic)")
"30%"
>>> endpoint_value("CCOC(=O)C1=C(N)N(c2ccccc2)C2=C(C(=O)CC(C)(C)C2)C1c1ccc(F)cc1 (racemic)")
"< 10%"
>>> endpoint_value("CCOC(=O)C1=C(N)N(c2ccccc2)C2=C(C(=O)CC(C)(C)C2)C1c1ccc([N+](=O)[O-])cc1 (racemic)")
"< 10%"
>>> endpoint_value("CCOC(=O)C1=C(N)N(c2ccccc2)C2=C(C(=O)CC(C)(C)C2)C1c1ccc(N2CCOCC2)cc1 (racemic)")
"< 10%"
>>> endpoint_value("CCOC(=O)C1=C(N)N(c2ccc(Cl)cc2)C2=C(C(=O)CC(C)(C)C2)C1c1ccc([N+](=O)[O-])cc1 (racemic)")
"< 10%"
>>> endpoint_value("CCOC(=O)C1=C(N)N(c2ccccc2)C2=C(C(=O)CC(C)(C)C2)C1c1ccccc1OC (racemic)")
"< 10%"
>>> endpoint_value("CCOC(=O)C1=C(N)N(c2ccc(Cl)cc2)C2=C(C(=O)CC(C)(C)C2)C1c1cccnc1 (racemic) [12f]")
"< 10%"
>>> endpoint_value("CCOC(=O)C1=C(N)N(c2ccc(Cl)cc2)C2=C(C(=O)CC(C)(C)C2)C1c1ccc(Cl)cc1Cl (racemic) [10d]")
"46%"
>>> endpoint_value("CCOC(=O)C1=C(N)N(c2ccccc2)C2=C(C(=O)CC(C)(C)C2)C1c1ccc(Cl)cc1 (racemic)")
"85%"
>>> endpoint_value("CCOC(=O)C1=C(N)N(c2ccccc2)C2=C(C(=O)CC(C)(C)C2)C1c1cccc(Cl)c1Cl (racemic) [10a]")
"58%"
>>> endpoint_value("CCOC(=O)C1=C(N)N(c2ccc(C)cc2)C2=C(C(=O)CC(C)(C)C2)C1c1ccccn1 (racemic) [12b]")
"< 10%"
>>> endpoint_value("CCOC(=O)C1=C(N)N(c2ccc(C)cc2)C2=C(C(=O)CC(C)(C)C2)C1c1cccnc1 (racemic) [12e]")
"< 10%"
>>> endpoint_value("CCOC(=O)C1=C(N)N(c2ccc(C)cc2)C2=C(C(=O)CC(C)(C)C2)C1c1ccc(Cl)cc1 (racemic)")
"< 10%"
>>> endpoint_value("CCOC(=O)C1=C(N)N(c2ccc(Cl)cc2)C2=C(C(=O)CC(C)(C)C2)C1c1ccc(Cl)cc1 (racemic)")
"31%"
>>> endpoint_value("CCOC(=O)C1=C(N)N(c2ccc(C)cc2)C2=C(C(=O)CC(C)(C)C2)C1c1ccc([N+](=O)[O-])cc1 (racemic)")
"< 10%"
>>> endpoint_value("CCOC(=O)C1=C(N)N(c2ccc(C)cc2)C2=C(C(=O)CC(C)(C)C2)C1c1ccccc1Cl (racemic)")
"12%"
>>> endpoint_value("CCOC(=O)C1=C(N)N(c2ccc(C)cc2)C2=C(C(=O)CC(C)(C)C2)C1c1ccc(OC)cc1 (racemic)")
"< 10%"
>>> endpoint_value("CCOC(=O)C1=C(N)N(c2ccc(Cl)cc2)C2=C(C(=O)CC(C)(C)C2)C1c1ccccc1OC (racemic)")
"28%"
